biological target: bradykinin 1 receptor (B1R) of the rat (Rattus norvegicus); construct: expressed in transfected cells; host or cells: CHO K1 cells; assay: Functional investigation on the rat bradykinin 1 receptor (B1R), Ca2+ FLIPR assay in CHO K1 rB1R cells; assay type: cell-based; settings: CHO-K1, B1R antagonism rat; test substance 10 μM; Ca2+ FLIPR, CHO K1 rB1R cells; read-out: B1R Ant. r [10 μM] % Inhibition
Sequence (P97583 whole entry): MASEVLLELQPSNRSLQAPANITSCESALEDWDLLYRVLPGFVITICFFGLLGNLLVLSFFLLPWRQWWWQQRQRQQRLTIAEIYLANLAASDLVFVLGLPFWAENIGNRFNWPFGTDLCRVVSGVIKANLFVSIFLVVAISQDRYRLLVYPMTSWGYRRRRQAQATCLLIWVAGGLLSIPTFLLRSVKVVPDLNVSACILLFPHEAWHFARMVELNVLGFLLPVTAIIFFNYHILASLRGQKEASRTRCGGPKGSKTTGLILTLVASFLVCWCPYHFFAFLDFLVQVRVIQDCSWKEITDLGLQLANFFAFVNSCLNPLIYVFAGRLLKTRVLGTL
Reported endpoint: inhibition at 10 µM (%)
Write down the numeric answer in % and omit the unit.

[
  {
    "Compound": "CN(C)C(c1ccccc1)C1CCC(NC(=O)CNC(=O)c2nc(-c3c(Cl)cccc3Cl)no2)CC1 (stereo not shown)",
    "Result units": "%",
    "Recorded number": 16
  }
]

# input Please supply the value of reported inhibition at 10 µM for the item O=C(COCC1CCCN(S(=O)(=O)c2c(Cl)cc(Cl)cc2Cl)C1)NC1CCC(C(CCc2ccccc2)N2CCOCC2)CC1 (stereo not shown)
# output 46

# input Please supply the value of reported inhibition at 10 µM for the item O=C(COCC1CCCN(S(=O)(=O)c2c(Cl)cc(Cl)cc2Cl)C1)NC1CCC(C(c2ccccc2)N2CCOCC2)CC1 (stereo not shown)
# output 37

# input Please supply the value of reported inhibition at 10 µM for the item CN(C)C(c1cccs1)C1CCC(NC(=O)CNC(=O)c2nc(-c3ccc(C(F)(F)F)cc3)no2)CC1 (stereo not shown)
# output 27
